# PROTOCOL DESCRIPTION: Half life at the pH 6.0
# Assay type: ADME
# PROTOCOL CONDITIONS: buffer
Reported half-life values follow for various compounds

[
  {
    "SMILES NOTATION": "CC(C)NC(=O)OCc1c(COC(=O)NC(C)C)c(-c2ccn(C)c(=O)c2)n2c1CCC2",
    "half-life, h": 0.856
  },
  {
    "SMILES NOTATION": "CC(C)NC(=O)OCc1c(COC(=O)NC(C)C)c(-c2cc[n+](C)c(F)c2)n2c1CCC2.[I-]",
    "half-life, h": 2.62
  }
]
